SYSTEM NAME: UniProtKB P41145
ASSAY TEXT: Competition binding, [3H]U69,593, hKOR-CHO membranes
SETTINGS: [3H]U69,593, human KOR; ± S.E.M., three independent experiments; read-out: KOR Ki
Where a SMILES comes first, the peptide text is derived from it. [ ]: non-standard residue; d: D form. dTrp(1-Me) = Cn1cc(C[C@@H](N)C(=O)O)c2ccccc21; dPhe(2-Me) = Cc1ccccc1C[C@@H](N)C(=O)O; dPhe(3-F) = N[C@H](Cc1cccc(F)c1)C(=O)O
So I've got a bunch of molecules here, and I need their pKi values.
One number for each entry, as −log10 of the molar value.

Use the examples below as a reference point.
MOLECULE	RECORDED MEASUREMENT
Cc1ccccc1C[C@H]1NC(=O)[C@H](Cc2ccccc2)NC(=O)[C@H]2CCCN2C(=O)[C@H](Cc2ccccc2)NC1=O [Analog 13] (cyclo(F[dP]F[dPhe(2-Me)]))	6.96
Cn1cc(C[C@H]2NC(=O)[C@H](Cc3ccccc3)NC(=O)[C@H]3CCCN3C(=O)[C@H](Cc3ccccc3)NC2=O)c2ccccc21 [Analog 2, [D-Trp(Me)]CJ-15,208] (cyclo(F[dP]F[dTrp(1-Me)]))	7.80

Here is the next item to consider.
Incoming: Which value of pKi has been reported for O=C1N[C@H](Cc2cccc(F)c2)C(=O)N[C@@H](Cc2ccccc2)C(=O)N2CCC[C@@H]2C(=O)N[C@H]1Cc1ccccc1 [Analog 6, [D-Phe(m-F)^4]CJ-15,208] (cyclo(F[dP]F[dPhe(3-F)])) in the records?
Outgoing: 7.49

###

Provide the recorded Emax at 10 µM for the entries that follow.
SYSTEM NAME: hKOR (Homo sapiens)
ASSAY TEXT: KOR cAMP assay using GloSensor-22F, agonist mode (KOR-CHO-GLO cells)
Assay type: cell-based
SETTINGS: read-out: KOR Efficacy (%)
Where a SMILES comes first, the peptide text is derived from it. [ ]: non-standard residue; d: D form. dTrp(1-Me) = Cn1cc(C[C@@H](N)C(=O)O)c2ccccc21; dPhe(3,5-F2) = N[C@H](Cc1cc(F)cc(F)c1)C(=O)O; dPhe(3-F) = N[C@H](Cc1cccc(F)c1)C(=O)O
Numbers only, in %.

MOLECULE	Emax at 10 µM (%)
Cn1cc(C[C@H]2NC(=O)[C@H](Cc3ccccc3)NC(=O)[C@H]3CCCN3C(=O)[C@H](Cc3ccccc3)NC2=O)c2ccccc21 [Analog 2, [D-Trp(Me)]CJ-15,208] (cyclo(F[dP]F[dTrp(1-Me)]))	14

For every record below, what is its Emax at 10 µM?
1. O=C1N[C@H](Cc2cc(F)cc(F)c2)C(=O)N[C@@H](Cc2ccccc2)C(=O)N2CCC[C@@H]2C(=O)N[C@H]1Cc1ccccc1 [Analog 9, [D-Phe(3,5-F2)^4]CJ-15,208] (cyclo(F[dP]F[dPhe(3,5-F2)]))
2. O=C1N[C@H](Cc2cccc(F)c2)C(=O)N[C@@H](Cc2ccccc2)C(=O)N2CCC[C@@H]2C(=O)N[C@H]1Cc1ccccc1 [Analog 6, [D-Phe(m-F)^4]CJ-15,208] (cyclo(F[dP]F[dPhe(3-F)]))

Outgoing:
1: 14; 2: 11

###

ASSAY TEXT: Metabolic stability in human liver microsomes
Type: in vitro ADME
SETTINGS: microsomes, 1 mg protein/mL, read-out: HLM CLint
Where a SMILES comes first, the peptide text is derived from it. [ ]: non-standard residue; d: D form. dPhe(3-Me) = Cc1cccc(C[C@@H](N)C(=O)O)c1; dPhe(4-Me) = Cc1ccc(C[C@@H](N)C(=O)O)cc1; dPhe(4-F) = N[C@H](Cc1ccc(F)cc1)C(=O)O
ENDPOINT: microsomal CLint (µL/min/mg)
Answers are plain numbers, in µL/min/mg.

COMPOUND	microsomal CLint, µL/min/mg
Cc1ccc(C[C@H]2NC(=O)[C@H](Cc3ccccc3)NC(=O)[C@H]3CCCN3C(=O)[C@H](Cc3ccccc3)NC2=O)cc1 [Analog 15] (cyclo(F[dP]F[dPhe(4-Me)]))	129
Cc1cccc(C[C@H]2NC(=O)[C@H](Cc3ccccc3)NC(=O)[C@H]3CCCN3C(=O)[C@H](Cc3ccccc3)NC2=O)c1 [Analog 14, [D-Phe(m-Me)^4]CJ-15,208] (cyclo(F[dP]F[dPhe(3-Me)]))	170

Incoming: For the compound O=C1N[C@H](Cc2ccc(F)cc2)C(=O)N[C@@H](Cc2ccccc2)C(=O)N2CCC[C@@H]2C(=O)N[C@H]1Cc1ccccc1 [Analog 7] (cyclo(F[dP]F[dPhe(4-F)])) , what microsomal CLint is on record?
Outgoing: 296

###

SYSTEM NAME: human MOR (Homo sapiens, UniProt P35372)
Construct: expressed in transfected cells
ASSAY TEXT: biochemical
Assay type: binding
Where a SMILES comes first, the peptide text is derived from it. [ ]: non-standard residue; d: D form.
ENDPOINT: Ki (nM)
Answers are plain numbers, in nM.

COMPOUND	SYSTEM NAME	Ki (nM)
Cc1cc(C)cc([C@@H]2CCCN2Cc2ccc(Oc3ccc(C(N)=O)cc3F)cc2)c1 [Aticaprant, reference compound]	human MOR (Homo sapiens, UniProt P35372)	15

Next compound, Ki to be filled in.
Incoming: Query: Ki; subject: O=C1N[C@H](Cc2c[nH]c3ccccc23)C(=O)N[C@@H](Cc2ccccc2)C(=O)N2CCC[C@@H]2C(=O)N[C@H]1Cc1ccccc1 [Analog 1, cyclo[Phe-D-Pro-Phe-D-Trp]] (cyclo(F[dP]F[dW]))
Outgoing: 58

###

ASSAY TEXT: Kinetic aqueous solubility
Type: physicochemical
SETTINGS: 1% DMSO, pH 7.4
Where a SMILES comes first, the peptide text is derived from it. [ ]: non-standard residue; d: D form. The star is where a group is joined. dPhe(3,5-F2) = N[C@H](Cc1cc(F)cc(F)c1)C(=O)O; dPhe(3-Me) = Cc1cccc(C[C@@H](N)C(=O)O)c1; dPhe(4-Me) = Cc1ccc(C[C@@H](N)C(=O)O)cc1; dPhe(3-F) = N[C@H](Cc1cccc(F)c1)C(=O)O; dPhe(4-F) = N[C@H](Cc1ccc(F)cc1)C(=O)O; dPhe(2-F) = N[C@H](Cc1ccccc1F)C(=O)O; For = O=C*
Threshold check on solubility kinetic: at or above 20 µM gives met, strictly below gives not met.

COMPOUND	LABEL VALUE
O=C1N[C@H](Cc2ccccc2)C(=O)N[C@@H](Cc2ccccc2)C(=O)N2CCC[C@@H]2C(=O)N[C@H]1Cc1ccccc1 [Analog 4, cyclo[Phe-D-Pro-Phe-D-Phe]] (cyclo(F[dP]F[dF]))	met
O=C1N[C@H](Cc2ccc(F)cc2)C(=O)N[C@@H](Cc2ccccc2)C(=O)N2CCC[C@@H]2C(=O)N[C@H]1Cc1ccccc1 [Analog 7] (cyclo(F[dP]F[dPhe(4-F)]))	met
O=C1N[C@H](Cc2cccc(F)c2)C(=O)N[C@@H](Cc2ccccc2)C(=O)N2CCC[C@@H]2C(=O)N[C@H]1Cc1ccccc1 [Analog 6, [D-Phe(m-F)^4]CJ-15,208] (cyclo(F[dP]F[dPhe(3-F)]))	met

Incoming: Dear colleague, could you confirm whether O=C1N[C@H](Cc2ccccc2F)C(=O)N[C@@H](Cc2ccccc2)C(=O)N2CCC[C@@H]2C(=O)N[C@H]1Cc1ccccc1 [Analog 5] (cyclo(F[dP]F[dPhe(2-F)])) has solubility kinetic at or above 20 µM?
Outgoing: not met

Incoming: Given O=C1N[C@H](Cc2cc(F)c(F)cc2F)C(=O)N[C@@H](Cc2ccccc2)C(=O)N2CCC[C@@H]2C(=O)N[C@H]1Cc1ccccc1 [Analog 10] , state whether its solubility kinetic is at least 20 µM.
Outgoing: not met

Incoming: Identify whether the reported solubility kinetic of the following compound is 20 µM or greater: O=C1N[C@H](Cc2cc(F)cc(F)c2)C(=O)N[C@@H](Cc2ccccc2)C(=O)N2CCC[C@@H]2C(=O)N[C@H]1Cc1ccccc1 [Analog 9, [D-Phe(3,5-F2)^4]CJ-15,208] (cyclo(F[dP]F[dPhe(3,5-F2)]))
Outgoing: not met

Incoming: # bool: solubility kinetic of Cc1ccc(C[C@H]2NC(=O)[C@H](Cc3ccccc3)NC(=O)[C@H]3CCCN3C(=O)[C@H](Cc3ccccc3)NC2=O)cc1 [Analog 15] (cyclo(F[dP]F[dPhe(4-Me)])) >= 20 µM
Outgoing: met

Incoming: Hi, just wondering whether O=Cn1cc(C[C@H]2NC(=O)[C@H](Cc3ccccc3)NC(=O)[C@H]3CCCN3C(=O)[C@H](Cc3ccccc3)NC2=O)c2ccccc21 [Analog 3, [D-Trp(formamide)]CJ-15,208] (cyclo(F[dP]F[dW](For))) shows solubility kinetic of 20 µM or higher.
Outgoing: not met

Incoming: Textbook exercise: given the entry Cc1cccc(C[C@H]2NC(=O)[C@H](Cc3ccccc3)NC(=O)[C@H]3CCCN3C(=O)[C@H](Cc3ccccc3)NC2=O)c1 [Analog 14, [D-Phe(m-Me)^4]CJ-15,208] (cyclo(F[dP]F[dPhe(3-Me)])) , state whether its solubility kinetic is greater than or equal to 20 µM.
Outgoing: not met
